target_under_test: Nuclear factor erythroid 2-related factor 2 (Homo sapiens) (UniProt Q16236)
Sequence (whole entry): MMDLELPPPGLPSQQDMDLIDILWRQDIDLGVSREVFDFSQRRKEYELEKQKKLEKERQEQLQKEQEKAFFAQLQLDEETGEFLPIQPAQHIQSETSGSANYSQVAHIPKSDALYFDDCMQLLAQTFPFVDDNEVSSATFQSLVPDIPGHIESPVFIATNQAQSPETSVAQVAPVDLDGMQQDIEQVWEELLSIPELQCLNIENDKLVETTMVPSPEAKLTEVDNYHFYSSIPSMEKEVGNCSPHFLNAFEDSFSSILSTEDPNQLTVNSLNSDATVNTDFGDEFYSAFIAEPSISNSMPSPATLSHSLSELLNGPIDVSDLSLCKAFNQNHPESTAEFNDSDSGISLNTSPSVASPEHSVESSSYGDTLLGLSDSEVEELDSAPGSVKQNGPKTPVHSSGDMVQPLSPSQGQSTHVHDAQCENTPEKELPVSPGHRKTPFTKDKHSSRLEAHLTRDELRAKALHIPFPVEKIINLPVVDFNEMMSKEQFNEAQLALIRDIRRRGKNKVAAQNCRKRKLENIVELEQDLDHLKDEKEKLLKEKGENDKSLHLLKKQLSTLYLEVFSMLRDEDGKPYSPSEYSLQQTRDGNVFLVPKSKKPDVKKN
experiment_summary: Activation of Nrf2/ARE-mediated transcription in human SK-N-SH cells after 6 hrs by luciferase reporter gene assay
Type: cell-based
Activity calls are given as the source filed them. The rule behind the calls is not given here.
# valid calls are 1.0 = active, 0.0 = inactive; nothing else

Check out these entries, answers already filled in.
COc1cc(/C=C/C(=O)/C=C/c2cc(CC=C(C)C)c(O)c(OC)c2)cc(CC=C(C)C)c1O	0.0
COc1cc(CCC(=O)CC(=O)CCc2ccc(O)c(OC)c2)ccc1O	0.0
COc1cc(/C=C/C(=O)CC(=O)/C=C/c2cc(CC=C(C)C)c(O)c(OC)c2)cc(CC=C(C)C)c1O	0.0

Below: the item to evaluate.
Task: Given COc1cc(/C=C/C(=O)CC(=O)/C=C/c2ccc(O)c(OC)c2)ccc1O [CURCUMIN] , state the outcome it received in this test.
Output: 1.0
